Tested on: CP329
Assay: qHTS profiling for inhibitors of Plasmodium falciparum proliferation (AID 504749); further: nearly all actives have a fitted effect of over 60% in size
Conditions: P. falciparum in erythrocytes, SYBR Green DNA, 72 h; series mostly up to 28.7 µM
Method: NIH National Institute of Allergy and Infectious Diseases [NIAID] NIH Chemical Genomics Center [NCGC] […] Because mature erythrocytes lack DNA, only Plasmodium-derived DNA is detected. NCGC Assay Protocol Summary: The SYBR Green viability assay was adapted from a method described previously (Plouffe et al., 2008). […] The following morning, fluorescence intensity at 485(14) nm excitation and 535(25) nm emission wavelengths was measured on an EnVision (Perkin Elmer) plate reader. […]
Results filed as inconclusive are left out. Activity calls are given as the source filed them. The call rests on the fitted dose curve; in most records, active means well fitted inhibition curve with a large enough effect; inconclusive means small, poorly fitted or top-dose-only effect; inactive means flat fitted curve, though single readings scatter.
Result category, one only: active, inactive

compound	classAssignment
COCCOC(=O)C1=C(C)NC(C)=C(C(=O)OC(C)C)C1c1cccc([N+](=O)[O-])c1 (stereo not drawn)	inactive
C#CCN(C)CCCOc1ccc(Cl)cc1Cl	inactive

Then there is this compound:
q: What was the test verdict on COCC(=O)O[C@]1(CCN(C)CCCc2nc3ccccc3[nH]2)CCc2cc(F)ccc2[C@@H]1C(C)C ?
a: active

Source of measurements: PubChem BioAssay (NCATS)
